These entries and their values trace back to ChEMBL document CHEMBL3885881.

Species on record: Rattus norvegicus
protocol-details: DrugMatrix - Regimen: Daily Repeat
Type: toxicity, organism-based, Sprague-Dawley
Parameters: regimen Daily Repeat, gender Male, age 6-8 weeks
test-conditions: in vivo, po, 1500 mg/kg, 120 h, tissue Blood, route oral GAVAGE, dose level High, time 5 day, vehicle .5 % CMC
property-label: MONOCYTE (%)
// units = %; emit number, no label

Check out these entries, answers already filled in.
compound | MONOCYTE / %
O=C(O)CCc1nc(-c2ccccc2)c(-c2ccccc2)o1 | 0.33
COc1ccc(Cl)cc1C(=O)NCCc1ccc(S(=O)(=O)NC(=O)NC2CCCCC2)cc1 [GLYBURIDE] | 0.67
COc1cc(/C=C/C(=O)O)ccc1O [FERULATE] | 0.33

Ask: Given CC[C@H]1OC(=O)[C@H](C)[C@@H](O[C@H]2C[C@@](C)(OC)[C@@H](O)[C@H](C)O2)[C@H](C)[C@@H](O[C@@H]2O[C@H](C)C[C@H](N(C)C)[C@H]2O)[C@](C)(O)C[C@@H](C)C(=O)[C@H](C)[C@@H](O)[C@]1(C)O , state its recorded MONOCYTE.
Reply: 4.33

Ask: Next: Cc1ccc(S(=O)(=O)NC(=O)NN2CCCCCC2)cc1 [TOLAZAMIDE]
Reply: 3.33

* * *

Species: Rattus norvegicus
protocol-details: DrugMatrix - Regimen: Daily Repeat
Format: toxicity, organism-based, Sprague-Dawley
Set-up: regimen Daily Repeat, gender Male, age 6-8 weeks
test-conditions: in vivo, po, 0 mg/kg, 72 h, tissue Blood, route oral GAVAGE, dose level Control, time 3 day, […]
Attribute: NEUTROPHIL
// units = %; emit number, no label

Check out these entries, answers already filled in.
compound | NEUTROPHIL, %
Cc1cccc(C)c1NC(=O)C(C)N (configuration not stated) [TOCAINIDE] | 9.33
O=C(Nc1ccc(Cl)c(Cl)c1)c1cc(Cl)cc(Cl)c1O [3,3',4',5-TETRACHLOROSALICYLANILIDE] | 9.83
c1ccc2c(c1)Nc1ccccc1S2 | 9.17

Ask: Given O=C(O)COC(=O)Cc1ccccc1Nc1c(Cl)cccc1Cl , state its recorded NEUTROPHIL.
Reply: 8.67

Ask: Next: CS(=O)(=O)c1ccc(C2=C(c3ccccc3)C(=O)OC2)cc1
Reply: 9.17

Ask: Next: CC(C)(c1ccc(O)cc1)c1ccc(O)cc1
Reply: 12.33

* * *

Attribute: HEMOGLOBIN
Species: Rattus norvegicus
protocol-details: DrugMatrix - Regimen: Daily Repeat
Format: toxicity, organism-based, Sprague-Dawley
Set-up: regimen Daily Repeat, gender Male, age 6-8 weeks
test-conditions: in vivo, po, 0 mg/kg, 72 h, tissue Blood, route oral GAVAGE, dose level Control, time 3 day, vehicle 100 % SALINE
// units = G/DL; emit number, no label

compound | HEMOGLOBIN / G/DL
CCN(CC)N=O | 12.42
CCO | 13.53
O=[As][O-].[Na+] [SODIUM ARSENITE] | 13.53
Cc1ccnc2c1NC(=O)c1cccnc1N2C1CC1 | 14.07

Now for the compound whose HEMOGLOBIN we want.
Ask: Given CC(CN1c2ccccc2Sc2ccccc21)N(C)C (stereo not given) , state its recorded HEMOGLOBIN.
Reply: 13.78

* * *

Species on record: Rattus norvegicus
protocol-details: DrugMatrix - Regimen: Daily Repeat
Type: toxicity, organism-based, Sprague-Dawley
Design: regimen Daily Repeat, gender Male, age 6-8 weeks
test-conditions: in vivo, po, 0 mg/kg, 120 h, tissue Plasma, route oral GAVAGE, dose level Control, time 5 day, vehicle .5 % CMC
property-label: SODIUM (MEQ/L)
// units = MEQ/L; emit number, no label

Check out these entries, answers already filled in.
compound | value-units | SODIUM
CC(C)(C#N)c1cc(Cn2cncn2)cc(C(C)(C)C#N)c1 | MEQ/L | 142.65
CC(=O)Nc1ccc2c(c1)Cc1ccccc1-2 | MEQ/L | 143.62
NC(=O)CN1CCCC1=O | MEQ/L | 143.03

Now for the compound whose SODIUM we want.
Ask: Given Cc1cc2c(s1)Nc1ccccc1N=C2N1CCN(C)CC1 , state its recorded SODIUM.
Reply: 142.8

* * *

Organism: Rattus norvegicus
protocol-details: DrugMatrix - Regimen: Daily Repeat
Assay type: toxicity, organism-based, Sprague-Dawley
Parameters: regimen Daily Repeat, gender Male, age 6-8 weeks
test-conditions: in vivo, po, 1500 mg/kg, 72 h, tissue Plasma, route oral GAVAGE, dose level High, time 3 day, vehicle .5 % CMC
Attribute: LACTATE DEHYDROGENASE
Please provide the amount together with its unit, number first.

molecule | property-label | experimental-result
Cc1ccc(S(=O)(=O)NC(=O)NN2CCCCCC2)cc1 [TOLAZAMIDE] | LACTATE DEHYDROGENASE | 80.67 u/L
O=C(O)CCc1nc(-c2ccccc2)c(-c2ccccc2)o1 | LACTATE DEHYDROGENASE | 247.33 u/L
COc1cc(/C=C/C(=O)O)ccc1O [FERULATE] | LACTATE DEHYDROGENASE | 475.67 u/L

Ask: Given CC[C@H]1OC(=O)[C@H](C)[C@@H](O[C@H]2C[C@@](C)(OC)[C@@H](O)[C@H](C)O2)[C@H](C)[C@@H](O[C@@H]2O[C@H](C)C[C@H](N(C)C)[C@H]2O)[C@](C)(O)C[C@@H](C)C(=O)[C@H](C)[C@@H](O)[C@]1(C)O , state its recorded LACTATE DEHYDROGENASE.
Reply: 131 u/L

* * *

Organism: Rattus norvegicus
protocol-details: DrugMatrix - Regimen: Daily Repeat
Format: toxicity, organism-based, Sprague-Dawley
Parameters: regimen Daily Repeat, gender Male, age 6-8 weeks
test-conditions: in vivo, po, 0 mg/kg, 72 h, tissue Blood, route oral GAVAGE, dose level Control, time 3 day, vehicle .5 % CMC
property-label: NUCLEATED RED BLOOD CELLS

Check out these entries, answers already filled in.
molecule | NUCLEATED RED BLOOD CELLS
NCC(CC(=O)O)c1ccc(Cl)cc1 (stereo unspecified) | 0 /100WBC
CCOc1cc(N)c(Cl)cc1C(=O)NCC1CN(Cc2ccc(F)cc2)CCO1 (stereo unspecified) [MOSAPRIDE] | 0 /100WBC

Ask: Given CN(C)CCOC(c1ccccc1)c1ccccc1.Cn1c(=O)c2[nH]c(Cl)nc2n(C)c1=O [DIMENHYDRINATE] , state its recorded NUCLEATED RED BLOOD CELLS.
Reply: 0.67 /100WBC

Ask: Next: CC(C)(C#N)c1cc(Cn2cncn2)cc(C(C)(C)C#N)c1
Reply: 0 /100WBC

Ask: Next: Cl.NC[C@H]1CC[C@H](C(=O)Oc2ccc(CCC(=O)O)cc2)CC1 [CETRAXATE HYDROCHLORIDE]
Reply: 0 /100WBC

Ask: Next: Cc1cc2c(s1)Nc1ccccc1N=C2N1CCN(C)CC1
Reply: 0 /100WBC

* * *

Species on record: Rattus norvegicus
protocol-details: DrugMatrix - Regimen: Daily Repeat
Format: toxicity, organism-based, Sprague-Dawley
Parameters: regimen Daily Repeat, gender Male, age 6-8 weeks
test-conditions: in vivo, po, 0 mg/kg, 72 h, tissue Blood, route oral GAVAGE, dose level Control, time 3 day, vehicle 100 % WATER
property-label: LYMPHOCYTE (%)
// units = %; emit number, no label

compound | value-units | experimental-result
Cc1cn([C@H]2C=C[C@@H](CO)O2)c(=O)[nH]c1=O | % | 90.17
C1CCN2C[C@@H]3C[C@@H](CN4CCCC[C@@H]34)[C@H]2C1 | % | 89.83
NN [HYDRAZINE] | % | 88.5
C[N+](C)(C)CCOC(N)=O.[Cl-] | % | 90.17
CCC1(c2ccccc2)C(=O)NC(=O)NC1=O | % | 91.17

Ask: Given CCN(CC)C(=S)SSC(=S)N(CC)CC , state its recorded LYMPHOCYTE.
Reply: 91.67

Ask: Next: CN1C(=O)OC(C)(C)C1=O
Reply: 82.33

Ask: Next: Cc1cc(C(C)(C)C)c(O)c(C)c1CC1=NCCN1
Reply: 90.17

Ask: Next: CC(Cl)(Cl)Cl
Reply: 89.83

* * *

Organism: Rattus norvegicus
protocol-details: DrugMatrix - Regimen: Daily Repeat
Format: toxicity, organism-based, Sprague-Dawley
Parameters: regimen Daily Repeat, gender Male, age 6-8 weeks
test-conditions: in vivo, po, 0 mg/kg, 72 h, tissue Plasma, route oral GAVAGE, dose level Control, time 3 day, vehicle .5 % CMC
Attribute: BLOOD UREA NITROGEN
// units = mg/dL; emit number, no label

Check out these entries, answers already filled in.
compound | BLOOD UREA NITROGEN (mg/dL)
CCN1CCN(c2cc3c(cc2F)c(=O)c(C(=O)O)cn3C2CC2)CC1 | 14.83
NC(=O)CN1CCCC1=O | 17.33
CCN1C[C@]2(COC)[C@H](O)C[C@H](OC)[C@@]34[C@@H]5C[C@@]6(O)[C@H](OC(=O)c7ccccc7)[C@@H]5[C@@](OC(C)=O)([C@@H]([C@H](OC)[C@H]23)[C@@H]14)[C@@H](O)[C@@H]6OC | 16.17
CN(C)CCC=C1c2ccccc2COc2ccccc21 [DOXEPIN] | 18.83
CCN1CCCC1CNC(=O)c1cc(S(N)(=O)=O)ccc1OC (centres undefined) [SULPIRIDE] | 15
Cc1cc2c(s1)Nc1ccccc1N=C2N1CCN(C)CC1 | 16
CCN(CC)CCNC(=O)c1cc(Cl)c(N)cc1OC [METOCLOPRAMIDE] | 14.83
CCOc1cc(N)c(Cl)cc1C(=O)NCC1CN(Cc2ccc(F)cc2)CCO1 (centres undefined) [MOSAPRIDE] | 17.33
CC(C)(C#N)c1cc(Cn2cncn2)cc(C(C)(C)C#N)c1 | 16.33
CC(C)NCC(O)COc1ccc(CC(N)=O)cc1 (centres undefined) | 18.83

Ask: Given Nc1ccc(C(=O)O)c(O)c1 , state its recorded BLOOD UREA NITROGEN.
Reply: 16.83

Ask: Next: COc1cc(/C=C/C(=O)O)ccc1O [FERULATE]
Reply: 15.5

Ask: Next: CN(C)CCOC(c1ccccc1)c1ccccc1.Cn1c(=O)c2[nH]c(Cl)nc2n(C)c1=O [DIMENHYDRINATE]
Reply: 15.33

Ask: Next: O=C1c2ccccc2C(=O)C1c1ccccc1
Reply: 16.17

Ask: Next: COc1cc(NC(C)CCCN)c2ncccc2c1 (centres undefined)
Reply: 15

Ask: Next: CC(=O)Nc1ccc2c(c1)Cc1ccccc1-2
Reply: 17.33
